molecular target: Mu-type opioid receptor (Homo sapiens, UniProt P35372)
Sequence (P35372 whole entry): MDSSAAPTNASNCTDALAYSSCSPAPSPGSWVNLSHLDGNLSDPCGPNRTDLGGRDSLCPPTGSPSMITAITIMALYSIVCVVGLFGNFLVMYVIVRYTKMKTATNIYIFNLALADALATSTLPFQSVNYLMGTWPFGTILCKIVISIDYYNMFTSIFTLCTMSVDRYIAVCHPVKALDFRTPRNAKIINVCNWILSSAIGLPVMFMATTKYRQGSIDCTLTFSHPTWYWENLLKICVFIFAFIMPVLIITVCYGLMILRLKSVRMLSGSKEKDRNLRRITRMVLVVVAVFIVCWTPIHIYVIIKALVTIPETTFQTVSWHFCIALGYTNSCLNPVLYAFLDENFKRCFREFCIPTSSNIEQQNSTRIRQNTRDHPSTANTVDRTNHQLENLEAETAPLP
Where a name gives a salt, the structure may show the parent alone.
# log10(Ki) annotations
Friendly reminder: values = log10 of Ki, unit nM.

Solved cases below.
compound: COc1cc2nc(N3CCN(C(=O)c4ccco4)CC3)nc(N)c2cc1OC [PRAZOSIN HYDROCHLORIDE]
log10(Ki): 3.25

compound: C[C@@H](NCCc1ccc(O)cc1)[C@@H](O)c1ccc(O)cc1 (relative stereo)
log10(Ki): 3.89

compound: N#Cc1ccc2[nH]cc(CCCCN3CCN(c4ccc5oc(C(N)=O)cc5c4)CC3)c2c1 [VILAZODONE HYDROCHLORIDE]
log10(Ki): 2.86

Sample CN1C[C@H](C(=O)N[C@]2(C)O[C@@]3(O)[C@@H]4CCCN4C(=O)[C@H](Cc4ccccc4)N3C2=O)C[C@@H]2c3cccc4[nH]cc(c34)C[C@H]21 [DIHYDROERGOTAMINE MESYLATE] — what was its log10(Ki)?
2.19

Using the record for COc1cccc([C@@H](C)NCCCc2ccccc2Cl)c1 [TECALCET HYDROCHLORIDE] , report its log10(Ki).
3.34

---

For D(3) dopamine receptor (Homo sapiens, UniProt P35462), measured pKi is reported for the entries below.
Structures can show the parent of a compound that is named as a salt.
Scale: pKi equals -log10([C]), with [C] in mol/L.

compound: CC1CCN(CC[C@H]2CCCN2S(=O)(=O)c2cccc(O)c2)CC1
pKi: 6.25
--
compound: C[C@@H](NCCCc1cccc(C(F)(F)F)c1)c1cccc2ccccc12 [CINACALCET HYDROCHLORIDE]
pKi: 6.41
--
compound: CCCCCNC(=N)N/N=C/c1c[nH]c2ccc(OC)cc12 [TEGASEROD MALEATE]
pKi: 6.37
--
compound: COC(=O)C1=C(C)NC(C)=C(C(=O)OCCCN2CCC(c3ccccc3)(c3ccccc3)CC2)[C@H]1c1cccc([N+](=O)[O-])c1
pKi: 6.37
--
compound: Cc1ccc2c(c1)c1c(n2CCc2ccc(C)nc2)CCN(C)C1 [LATREPIRDINE]
pKi: 6.34

Which pKi is reported with D(3) dopamine receptor (Homo sapiens, UniProt P35462) for this entry: CCCCCCCCCCCCCCCCOC[C@H](COP(=O)([O-])OCC[N+](C)(C)C)OC(C)=O ?
5.75

Query the reported pKi for D(3) dopamine receptor (Homo sapiens, UniProt P35462); item: COc1ccc(S(=O)(=O)c2cc(OC)ccc2S(=O)(=O)c2ccc([C@H](C)NS(C)(=O)=O)cc2)cc1
6.25

Value wanted: pKi (D(3) dopamine receptor (Homo sapiens, UniProt P35462)) of entry CN1CCC(=C2c3ccccc3CC(=O)c3sccc32)CC1 [KETOTIFEN FUMARATE]
6.14

Query for D(3) dopamine receptor (Homo sapiens, UniProt P35462): what pKi does the record show for CCc1nn(CCCN2CCN(c3cccc(Cl)c3)CC2)c(=O)n1CCOc1ccccc1 [NEFAZODONE HYDROCHLORIDE] ?
6.42

---

target: D(1A) dopamine receptor (Homo sapiens)
Sequence (P21728 whole entry): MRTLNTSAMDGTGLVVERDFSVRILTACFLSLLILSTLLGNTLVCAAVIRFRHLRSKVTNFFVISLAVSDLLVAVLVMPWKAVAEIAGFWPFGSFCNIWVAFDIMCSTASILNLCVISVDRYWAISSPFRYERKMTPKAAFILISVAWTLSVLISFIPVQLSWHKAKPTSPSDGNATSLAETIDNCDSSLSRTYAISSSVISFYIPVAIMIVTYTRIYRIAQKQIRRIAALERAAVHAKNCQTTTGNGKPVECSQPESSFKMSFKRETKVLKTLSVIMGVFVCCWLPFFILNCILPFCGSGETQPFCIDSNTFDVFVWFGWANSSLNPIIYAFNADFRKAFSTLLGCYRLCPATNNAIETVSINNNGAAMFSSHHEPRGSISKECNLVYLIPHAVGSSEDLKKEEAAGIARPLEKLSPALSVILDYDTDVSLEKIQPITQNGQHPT
quantity: pKi
# log scale: pKi equals minus log10 of the concentration in mol/L

Worked examples, 3 compounds total:
smiles: COC(=O)C1=C(C)NC(C)=C(C(=O)OCCCN2CCC(c3ccccc3)(c3ccccc3)CC2)[C@H]1c1cccc([N+](=O)[O-])c1
pKi: 6.43
//
smiles: Cc1cccc(NC(=O)N[C@@H]2N=C(c3ccccc3)c3ccccc3N(C)C2=O)c1
pKi: 5.52
//
smiles: Cc1nc2sccn2c(=O)c1CCN1CCC(=C(c2ccc(F)cc2)c2ccc(F)cc2)CC1
pKi: 6.48

Let us examine a further case.
Consider the compound S=C(NCCCc1c[nH]cn1)NCCCN(Cc1ccc(Cl)c(Cl)c1)c1ccc(Br)cn1 and give its measured pKi.
5.77

---

molecular target: Sigma intracellular receptor 2 (Homo sapiens, UniProt Q5BJF2); assay: PDSP Secondary Binding target: TMEM97 - Compounds are tested at 10 uM concentration, plate are incubated at room temperature in the dark for 90 minutes. Reaction are stopped by vacuum filtration onto 0.3% polyethyleneimine soaked filter mats using Filtermate harvester. Scintillation cocktail is then melted onto microwave-dried filters on a hot plate and the radio activity is counted in Microbia counter.
Sequence (Q5BJF2 whole entry): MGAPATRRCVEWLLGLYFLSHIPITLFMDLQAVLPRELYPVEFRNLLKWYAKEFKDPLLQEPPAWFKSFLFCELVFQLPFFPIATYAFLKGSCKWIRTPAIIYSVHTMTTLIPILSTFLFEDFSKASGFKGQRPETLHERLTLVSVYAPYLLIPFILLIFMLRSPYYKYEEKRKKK
pKi: −log10 of the molar value. Structures can show the parent of a compound that is named as a salt.
Outcome label depends on pKi relative to 6: at/above gives Yes, below gives No.

molecule: CN1CCC(=C2c3ccccc3CC(=O)c3sccc32)CC1 [KETOTIFEN FUMARATE]
assigned-category: Yes

molecule: Cc1c(C2=CCN(C(=O)N(C)C(C)C)CC2)nnn1-c1cccnc1F
assigned-category: No

molecule: NCCc1c[nH]c2ccc(C(N)=O)cc12
assigned-category: No

molecule: C[C@@H](NCCCc1cccc(C(F)(F)F)c1)c1cccc2ccccc12 [CINACALCET HYDROCHLORIDE]
assigned-category: Yes

Determine whether this molecule has pKi no lower than 6: CCCCN1CCC(COC(=O)c2cc(Cl)c(N)c3c2OCCO3)CC1
Yes

Threshold query (pKi >= 6) on COc1ccccc1N1CCN(CCCCNC(=O)c2ccc3ccccc3c2)CC1
Yes

Determine whether this molecule has pKi no lower than 6: CC1=C2C[C@H]3[C@@H](CC=C4C[C@@H](O)CC[C@@]43C)[C@@H]2CC[C@]12O[C@@H]1C[C@H](C)CN[C@H]1[C@H]2C [CYCLOPAMINE]
Yes

Hello, I need to know if CCc1nn2c(C)cc(C)nc2c1Cc1ccc(-c2nnc(C3CCNCC3)o2)cc1 has measured pKi not below 6. Thanks!
Yes

Exam item: decide whether the reported pKi for Cc1nc2sccn2c(=O)c1CCN1CCC(=C(c2ccc(F)cc2)c2ccc(F)cc2)CC1 [RITANSERIN] is at least 6.
Yes

pKi >= 6 for CN[C@@H]1CCc2[nH]c3ccc(C(N)=O)cc3c2C1 [FROVATRIPTAN SUCCINATE] ?
No

Please check the record Cc1nc(C#Cc2ccnc(Cl)c2)c(C)n1-c1ccc(OC(F)(F)F)cc1 and state if its pKi is at or above 6.
No

Could you verify whether the entry CC(C)NCC(O)COc1cccc2[nH]ccc12 (centres undefined) [PINDOLOL] shows pKi of no less than 6?
No

Please tell me: is the molecule CC(C)NCC(O)COc1cccc2ccccc12 (centres undefined) [PROPRANOLOL HYDROCHLORIDE] at or over 6 in terms of pKi?
Yes

---

molecular target: 5-hydroxytryptamine receptor 1D (Homo sapiens)
Sequence (P28221 whole entry): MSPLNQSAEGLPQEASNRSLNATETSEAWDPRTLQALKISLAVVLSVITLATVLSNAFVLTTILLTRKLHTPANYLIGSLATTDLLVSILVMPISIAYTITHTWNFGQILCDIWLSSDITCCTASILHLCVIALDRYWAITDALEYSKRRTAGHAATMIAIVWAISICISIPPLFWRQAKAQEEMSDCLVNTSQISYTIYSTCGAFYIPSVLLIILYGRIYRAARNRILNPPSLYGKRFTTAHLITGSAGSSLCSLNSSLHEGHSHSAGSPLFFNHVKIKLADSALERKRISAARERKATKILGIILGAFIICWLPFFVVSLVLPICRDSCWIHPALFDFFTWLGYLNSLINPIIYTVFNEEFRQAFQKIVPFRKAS
Counter-ions that a name gives are not always drawn.
Output T for records whose Ki is lower than 400 nM, F for records at or above 400 nM.

As a guide, the following entries are already answered.
compound: N#Cc1c[nH]c2c(C(=O)N3CCN(CCc4ccc(F)cc4)CC3)cccc12
assigned-category: F
--
compound: CN1C2CCC1CC(OC(c1ccc(F)cc1)c1ccc(F)cc1)C2 (stereo not drawn)
assigned-category: F
--
compound: NCCc1cn(S(=O)(=O)c2c(Cl)nc3sccn23)c2ccccc12
assigned-category: T
--
compound: C[C@@H](NCCCc1cccc(C(F)(F)F)c1)c1cccc2ccccc12 [CINACALCET HYDROCHLORIDE]
assigned-category: F
--
compound: CN(C)C(=O)N[C@H]1CC[C@H](CCN2CCN(c3cccc(Cl)c3Cl)CC2)CC1 [CARIPRAZINE HYDROCHLORIDE]
assigned-category: T
--
compound: CCCCCNC(=N)N/N=C/c1c[nH]c2ccc(OC)cc12 [TEGASEROD MALEATE]
assigned-category: T

A record lists C[C@H](Cc1cc2c(c(C(N)=O)c1)N(CCCO)CC2)NCCOc1ccccc1OCC(F)(F)F . Is its Ki below 400 nM?
T

---

# 5-hydroxytryptamine receptor 1E (Homo sapiens): Ki values follow
# Sequence (P28566 whole entry): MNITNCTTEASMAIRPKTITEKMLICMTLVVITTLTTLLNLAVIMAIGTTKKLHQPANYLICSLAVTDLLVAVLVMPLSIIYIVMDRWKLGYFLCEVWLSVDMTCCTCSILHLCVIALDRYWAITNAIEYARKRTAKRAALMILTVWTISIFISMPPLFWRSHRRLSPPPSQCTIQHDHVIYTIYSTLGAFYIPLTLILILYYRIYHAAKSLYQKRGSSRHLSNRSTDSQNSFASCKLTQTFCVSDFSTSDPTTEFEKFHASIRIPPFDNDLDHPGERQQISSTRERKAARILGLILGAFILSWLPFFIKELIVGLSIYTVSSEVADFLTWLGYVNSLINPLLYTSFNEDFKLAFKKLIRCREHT
Structures can show the parent of a compound that is named as a salt.
Answer as a quantity: numeral, then unit.

Record excerpt, results attached:
compound: CN[C@@H]1CCc2[nH]c3ccc(C(N)=O)cc3c2C1 [FROVATRIPTAN SUCCINATE]
quantity: Ki
observed-result: 311 nM
--
compound: CN1CCCC(n2nc(Cc3ccc(Cl)cc3)c3ccccc3c2=O)CC1 (configuration not stated) [AZELASTINE HYDROCHLORIDE]
quantity: Ki
observed-result: 5370 nM
--
compound: CN1CCC(C(=O)c2cccc(NC(=O)c3c(F)cc(F)cc3F)n2)CC1
quantity: Ki
observed-result: 127 nM
--
compound: NCCc1c[nH]c2ccc(C(N)=O)cc12
quantity: Ki
observed-result: 949 nM
--
compound: O=c1ccc2ccc(OCCCCN3CCN(c4cccc5sccc45)CC3)cc2[nH]1
quantity: Ki
observed-result: 478 nM

// fetch 5-hydroxytryptamine receptor 1E (Homo sapiens) Ki for Clc1cccc(COc2cncc(N3CCNCC3)n2)c1
1450 nM

Find the measured Ki: item COc1ccc(NC(=O)c2ccc(-c3ccc(-c4noc(C)n4)cc3C)cc2)cc1OCCN(C)C , target or system 5-hydroxytryptamine receptor 1E (Homo sapiens).
981 nM

These data points were gathered from ChEMBL document CHEMBL5442175.
